experiment: Ratio of AUC in human alveolar cells to AUC in human serum at […] followed by […] regimen for every 12 hrs; assay type: ADME, organism-based, Pneumocyte; settings: read-out: Ratio AUC
quantity_measured: Kp at 12 h
Answer with the value's number alone.

Ask: Item CN(C)c1cc(NC(=O)CNC(C)(C)C)c(O)c2c1C[C@H]1C[C@H]3[C@H](N(C)C)C(O)=C(C(N)=O)C(=O)[C@@]3(O)C(O)=C1C2=O : provide Kp at 12 h
Result: 78

====

assay: AUC in mouse pneumoniae model at 5 mg/kg; format: ADME, organism-based; set-up: dose 5 mg/kg; details: in vivo
quantity_measured: AUC
Kindly report the value followed by its unit.

Ask: Item CN(C)c1cc(NC(=O)CNC(C)(C)C)c(O)c2c1C[C@H]1C[C@H]3[C@H](N(C)C)C(O)=C(C(N)=O)C(=O)[C@@]3(O)C(O)=C1C2=O : provide AUC
Result: 2900 ng·h/mL
